molecular target: PBRM1 BD4 (UniProt Q86U86 496-637); assay: NMR
Sequence (Q86U86 496-637): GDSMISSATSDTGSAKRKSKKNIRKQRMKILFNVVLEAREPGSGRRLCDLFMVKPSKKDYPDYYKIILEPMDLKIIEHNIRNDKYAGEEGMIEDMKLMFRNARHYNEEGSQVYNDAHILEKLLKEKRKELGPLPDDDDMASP
property.measured: pKd
// pKd: -log10(molar conc.)

Query: I have this binder here, GCGUAGACAGCUGUUCGCAGCUGUCUAUGC (structured_RNA) [dsRNAI] , and I need its recorded pKd.
Response: 3.92

The values you see were collected from paper doi:10.1101/2022.02.07.479474.
